target: MSI1 full-length (mouse, UniProt Q61474 1-362); assay: nsRBNS (natural sequence RNA bind-n-seq); RBNS binding buffer (assumed for nsRBNS): 25 mM Tris pH 7.5, 150 mM KCl, 3 mM MgCl2, 0.01% Triton X-100, 500 ug/ml BSA, 20 U/ml SUPERase-In, 4 C; UNK is unkempt and MSI1 is Musashi-1; names of the RNAs are library labels; protein concentration not given here; high values mean tight binding
Sequence (Q61474 whole entry): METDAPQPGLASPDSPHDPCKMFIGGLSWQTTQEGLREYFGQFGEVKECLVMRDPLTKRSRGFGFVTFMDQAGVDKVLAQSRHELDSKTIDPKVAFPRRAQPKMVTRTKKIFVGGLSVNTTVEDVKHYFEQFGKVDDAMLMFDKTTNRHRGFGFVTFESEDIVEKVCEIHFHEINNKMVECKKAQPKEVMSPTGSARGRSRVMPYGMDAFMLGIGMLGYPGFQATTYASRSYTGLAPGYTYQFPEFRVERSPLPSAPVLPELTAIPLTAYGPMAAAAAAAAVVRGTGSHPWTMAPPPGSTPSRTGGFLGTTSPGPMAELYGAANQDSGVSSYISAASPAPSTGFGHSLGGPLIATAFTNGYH
Whole data set: some 5,800 sequences, median “enrichment r” near 0.54, cut for the highest 2% near 16. For the sample, the highest values were picked, then their nearest neighbours and some sequences at random.
# key: entry, value: binding signal
Reported endpoint: binding signal

[[record]]
binder = "ENSG00000107863:be:win_5501|CDS|ENSG00000107863|bound_else_gene|NA|bound_elsewhere_windowed (ssRNA) RNA: GGGAGUUCUACAGUCCGACGAUCCUGUAAACCGGUUAAAACCAAAAUGCUCAGCCCAGGACCUUUCCAUCUCAGACUGGCUGGCCAGGGAACGCCUACGCACCAGUACCUCUGACCUUAGCAGAGGAGAAAUCGGAGAUCCCCCAACAGAGGAUUGAGCAUCA"
measurement = "0.497 enrichment R"

[[record]]
binder = "chr17:10306458:10306629:-|CDS|ENSG00000006788|control|control|control (ssRNA) RNA: GGGAGUUCUACAGUCCGACGAUCCCACCUGGAGCGGAUGAAGAAGAACCUGGAGCAGACGGUGAAGGACCUGCAGCACCGUCUAGAUGAGGCUGAACAACUGGCGCUGAAGGGCGGGAAGAAGCAGAUCCAGAAACUGGAGAACAACAGAGGAUUGAGCAUCA"
measurement = "0.485 enrichment R"

[[record]]
binder = "chr9:72354534:72354635:-|3pUTR|ENSG00000107372|msi1|FALSE|unique (ssRNA) RNA: GGGAGUUCUACAGUCCGACGAUCGUCCUAGUUUUUACUUUUAUUCUUAAAGCAUUCAGUUUUGCUUUCAAUUUUAUGUACCUUAGUUCUGAGUUAGACCUGCAGAUGUGUACAGAUAGUUCAUAUUUAUGUAUUGCACAUAAUCAACAGAGGAUUGAGCAUCA"
measurement = "42.6 enrichment R"

